# Tested on: SK-MEL-5 melanoma
# experiment: NCI-60 one-dose screen, 48 h (100 = growth as untreated, 0 = no growth, -100 = all killed)
# details: 10 µM unless noted
This is part of a sample that, as a whole, favours compounds with a hit. Of some 83,000 tested, about 20% had one in any assay. The source made the active and inactive calls. Rule for the calls: active = growth percent below 10; inactive = the rest.
observation_type: growth

Reported growth for Cc1ccc(C=C2C(Cl)=C(Cl)C(Cl)=C2Cl)cc1 was -94.4% (active)

So, CN1CCCC1c1cccnc1 (stereo unspecified) ? Its growth was 87.7% (inactive)

Summary for this compound, COc1cccc2c1C(=O)c1c(O)c3c(c(O)c1C2=O)C[C@@](O)(/C(C)=N/NC(=O)c1cccc([N+](=O)[O-])c1)C[C@@H]3OC1CC(N)C(O)C(C)O1 (stereo partly specified) : growth is -100% (active)

# growth (compound: O=C1CCCN1C1CCN(Cc2cc3ccccc3[nH]c2=O)c2ccccc21 (stereo unspecified) ) is 86.1% (inactive)

Value of measured growth for the entry Cc1c(C(N)=O)sc2ncn(CC(=O)Nc3ccc(Cl)cc3)c(=O)c12 : 107% (inactive)

# growth (compound: COC(=O)[C@]1(CCSC)N[C@H](c2cn(-c3ccccc3)nc2C)[C@@H]2C(=O)N(c3ccc(C)cc3)C(=O)[C@@H]21 ) is 115% (inactive)

====

growth values for the compounds below.
# Tested on: SNB-19 CNS
# experiment: NCI-60 one-dose screen, 48 h (100 = growth as untreated, 0 = no growth, -100 = all killed)
# details: 10 µM unless noted
Compounds without any hit were thinned out: in the full panel of roughly 83,000, 20% have a hit.
Write it as a number; the unit % goes unstated.

Here are 5 compounds together with their reported answers.
compound: Clc1ncn[nH]1
test_target: SNB-19 CNS
unit_label: %
growth: 102
--
compound: O=C(Nc1nc(-c2ccc(Cl)cc2)cs1)c1cc(O)c(O)c(O)c1
test_target: SNB-19 CNS
unit_label: %
growth: 25.9
--
compound: O=C1C2C3C=CC(O3)C2C(=O)N1Nc1ccccc1 (stereo unspecified)
test_target: SNB-19 CNS
unit_label: %
growth: 111
--
compound: Cc1c(N(C)CS(=O)(=O)O)c(=O)n(-c2ccccc2)n1C
test_target: SNB-19 CNS
unit_label: %
growth: 101
--
compound: CCCn1cnc2c1c(=O)n(CCCCC(C)=O)c(=O)n2C
test_target: SNB-19 CNS
unit_label: %
growth: 120

Read the next record carefully.
So for Oc1ccc(-c2nn(-c3ccccc3)cc2-c2nc3ccccc3s2)cc1 , the logged growth turned out to be 93.9

====

# Test system: M14 melanoma
# experiment: NCI-60 one-dose screen, 48 h (100 = growth as untreated, 0 = no growth, -100 = all killed)
# details: 10 µM unless noted
About 83,000 compounds went through this panel and 20% of them were active in at least one assay; those are over-represented in the sample as a whole. Activity calls are given as the source filed them. Rule for the calls: active = growth percent below 10; inactive = the rest.
observation_type: growth

Sample records with growth:
molecule: C=C1CC[C@@H]2[C@](C)(COC(C)=O)[C@H](OC(C)=O)CC[C@@]2(C)[C@@H]1CC(Nc1ccc(S(=O)(=O)Nc2cc(C)on2)cc1)C1=CCOC1=O (some centres undefined)
growth: 29.9% (inactive)
//
molecule: C[C@]12CC[C@@H]3c4ccc(O)c([N+](=O)[O-])c4CC[C@H]3[C@@H]1CC[C@@H]2NS(=O)(=O)c1ccc(C(F)(F)F)cc1
growth: 34.2% (inactive)

The molecule listed as COc1cc2c(cc1OCCCOc1ccc(-c3cc4ccccc4c4ccccc34)cc1)N=C[C@@H]1CCCN1C2=O shows growth equal to -34.2% (active)

Item: COc1ccc(-c2nc3sccn3c2-c2ccnc(S(C)(=O)=O)n2)cc1 | growth: 102% (inactive)

Given item COc1ccc(-c2cn(-c3ccccc3)c(-c3ccccc3)n2)cc1OC , the value recorded as its growth is 87% (inactive)

====

# System: SF-268 CNS
# experiment: NCI-60 one-dose screen, 48 h (100 = growth as untreated, 0 = no growth, -100 = all killed)
# details: 10 µM unless noted
This is part of a sample that, as a whole, favours compounds with a hit. Of some 83,000 tested, about 20% had one in any assay.
observation_type: growth (%)
Give your result in % as a bare value.

molecule: O=C1/C(=C/c2ccc([N+](=O)[O-])o2)Oc2ccc(Br)cc21
test_target: SF-268 CNS
unit_label: %
growth: 48.1

molecule: Nc1ncc(-c2cnn(C3CCNCC3)c2)cc1-c1nc2cc(Cl)ccc2o1
test_target: SF-268 CNS
unit_label: %
growth: -83.4

molecule: CCOC(=O)c1ccccc1OC(=O)NNc1ccccc1
test_target: SF-268 CNS
unit_label: %
growth: 65.6

// switching to the query molecule
Given item CCOC(=O)C(Cc1ccccc1)(C(=O)OCC)C(Br)C(=O)c1ccccc1 (centres undefined) , the value recorded as its growth is 88

====

# Test system: UACC-62 melanoma
# experiment: NCI-60 one-dose screen, 48 h
# details: 10 µM unless noted
This is part of a sample that, as a whole, favours compounds with a hit. Of some 83,000 tested, about 20% had one in any assay. Calls of active or inactive are those of the source. Rule for the calls: active = growth percent below 10; inactive = the rest.
Valid outcomes are listed here; reply with one: active, inactive

Study these solved cases before continuing.
compound: Cc1[nH]n(C(N)=S)c(=O)c1N=Nc1ccc(F)c(Cl)c1
discrete_label: inactive

compound: COc1ccc2c(c1)nc(N)c1c3ccccc3cn21
discrete_label: inactive

compound: c1ccc(Nc2nnc(-c3cc(-c4cccnc4)n(-c4ccccc4)n3)s2)cc1
discrete_label: inactive

compound: O=C1CN(CO)C(=O)CN1CO
discrete_label: inactive

compound: O=Nc1ccc(O)c(=O)cc1
discrete_label: inactive

Task item: Short answer needed: outcome of this test for O=C(/C=C/c1ccccc1)CC(c1ccccc1)N1CCOCC1 (stereo not drawn) ?
Reply: inactive

Task item: Look up the recorded call for Cc1nn(-c2ccccc2)c2ncc3c(c12)C(=O)N(Cc1ccccc1)C3=O in this test.
Reply: inactive

Task item: Returns: the outcome recorded for COc1cc(C2NC(c3ccc(Cl)cc3)C(C)C(=NC(=O)c3cnccn3)C2C)cc(OC)c1OC (stereo not drawn) in this assay.
Reply: inactive

Task item: How did this test come out for O=C(Nc1cccc(C(F)(F)F)c1)Nc1ccc(OCc2nnc(-c3ccc(Cl)cc3)o2)c(F)c1 ?
Reply: inactive

Task item: Per the records of this test, what outcome belongs to O=C1OCC/C1=C\OCCCO/C=C1\CCOC1=O ?
Reply: inactive

Task item: For O=C(O)c1ccc(NC(=O)c2cccc(Nc3ccnc(C(F)(F)F)c3)c2)cc1 , which call appears in the assay record?
Reply: inactive

====

# Test system: T-47D breast
# experiment: NCI-60 one-dose screen, 48 h (100 = growth as untreated, 0 = no growth, -100 = all killed)
# details: 10 µM unless noted
About 83,000 compounds went through this panel and 20% of them were active in at least one assay; those are over-represented in the sample as a whole. Active and inactive are the calls of the source. The calls were made as follows: active = growth percent below 10; inactive = the rest.
observation_type: growth

Below, each entry is followed by its recorded growth result.
compound: O=C(Nc1nc(-c2ccccc2)cs1)c1cc(O)c(O)c(O)c1
observation_type: growth
data_value: 31.2% (inactive)

compound: C[C@@H]1CC[C@H]2[C@@H](C)C(O)O[C@@H]3O[C@]4(C)CC[C@@H]1[C@]32OO4 (stereo not given in full)
observation_type: growth
data_value: 36.3% (inactive)

compound: OC(CCC(O)(c1ccccc1)c1ccccc1)(c1ccccc1)c1ccccc1
observation_type: growth
data_value: 94.1% (inactive)

compound: CC(=O)Oc1ccc(C23c4ccccc4C2(OC(C)=O)c2cc(OC(C)=O)ccc23)cc1 (stereo not given)
observation_type: growth
data_value: 38.9% (inactive)

compound: Cc1cccc(Cl)c1NC(=O)c1ccc2nc(NC(=O)NC3CC(C)(C)NC(C)(C)C3)sc2c1
observation_type: growth
data_value: 54% (inactive)

compound: C[n+]1ccc(Nc2ccc(NC(=O)c3ccc(Nc4cc[n+](C)c5ccc(N)cc45)cc3)cc2)cc1
observation_type: growth
data_value: 102% (inactive)

compound: O=C(N1CCC(CN=c2cc3n(-c4ccc(Cl)cc4)c4ccccc4nc-3cc2Nc2ccc(Cl)cc2)CC1)N1CC1
observation_type: growth
data_value: -46.8% (active)

compound: O=C1OCC/C1=C\OCCCO/C=C1\CCOC1=O
observation_type: growth
data_value: 103% (inactive)

Tested on T-47D breast: COc1ccc(/C=C2\NC(=S)NC2=O)cc1 . Observed growth: 86.3% (inactive)

Measured growth for this entry Cc1c(C)c(N2C(=O)C=CC2=O)c(C)c(C)c1N1C(=O)C=CC1=O on T-47D breast: 113% (inactive)

====

# Test system: NCI/ADR-RES ovarian
# experiment: NCI-60 one-dose screen, 48 h (100 = growth as untreated, 0 = no growth, -100 = all killed)
# details: 10 µM unless noted
About 83,000 compounds went through this panel and 20% of them were active in at least one assay; those are over-represented in the sample as a whole.
Listed next: entries and their corresponding growth.
Your answer should be a plain number; it is taken to be in %.

Form field growth for item CC(C)C/C(=N\NC(=O)c1ccncc1)c1cc(Cl)ccc1O on NCI/ADR-RES ovarian: 5.17
